Every entry's value here was drawn from PubChem BioAssay (NCI).

system: MDA-MB-231 breast; experiment: NCI tumour cell line growth inhibition, 48 h; in the data active = GI50 below about 0.43 µM; inactive = the rest
Please reply with one of these outcomes: active, inactive

Exercise: What did this assay record as the result for O=C1/C(=C/c2ccccc2[N+](=O)[O-])COc2ccc(O)cc21 ?
Key: inactive

Exercise: Could you please tell me the result logged for C=CCN(CC=C)C(=O)[C@H](CC)[C@@H]1CC[C@@H](C)[C@@H]([C@H](C)[C@@H](O)[C@@H](C)C(=O)[C@H](CC)C2O[C@]3(C=C[C@@H](O)[C@]4(CC[C@@](C)([C@H]5CC[C@](O)(CC)[C@H](C)O5)O4)O3)[C@H](C)C[C@@H]2C)O1 (stereo not given in full) in this assay?
Key: inactive

Exercise: Dear all, I need the recorded test outcome for O=C(c1ccco1)c1c(C(F)(F)F)n([O-])c2cc(F)c(F)cc2[n+]1=O , thank you.
Key: active

Exercise: Per the records of this test, what outcome belongs to COc1cc(-c2ncn(/C=C\c3nnco3)n2)cc(C(F)(F)F)c1 ?
Key: active

Exercise: Hello, I am checking results. What call was entered for COCCOCCOCCOCCOC(=O)OC[n+]1ccc(NC(=NCCCCCCOc2ccc(Cl)cc2)NC#N)cc1 ?
Key: inactive

----------
tested on: NCI-H226 lung; test: NCI tumour cell line growth inhibition, 48 h; in the data active = GI50 below about 0.43 µM; inactive = the rest
Answer with one of the outcomes true (1) (active), false (0) (inactive)

Exercise: # lookup: test call for COc1ccc(COc2cc3oc(=O)c4cc(C(C)O)ccc4c3cc2OC)cc1 (stereo not drawn)
Key: false (0)

Exercise: What outcome does the record of this test show for COCCOCCOCCOCCOC(=O)OC[n+]1ccc(NC(=NCCCCCCOc2ccc(Cl)cc2)NC#N)cc1 ?
Key: false (0)

Exercise: Record request — test call for CC(=O)N(O)c1ccc(/C=C/c2ccccc2)cc1
Key: true (1)

Exercise: Status in this test for C=CCN(CC=C)C(=O)[C@H](CC)[C@@H]1CC[C@@H](C)[C@@H]([C@H](C)[C@@H](O)[C@@H](C)C(=O)[C@H](CC)C2O[C@]3(C=C[C@@H](O)[C@]4(CC[C@@](C)([C@H]5CC[C@](O)(CC)[C@H](C)O5)O4)O3)[C@H](C)C[C@@H]2C)O1 (stereo partly drawn) ?
Key: false (0)

Exercise: Hey, what did the test say about N#Cc1cccc(Nc2ncc(-c3ccccc3)o2)c1 ?
Key: false (0)

Exercise: Can you look up the reported call for O=S(=O)(NCCCNc1cc(-c2cn(-c3ccccc3)nc2-c2cccc(O)c2)ccn1)c1ccc(F)cc1 for me?
Key: false (0)

Exercise: What did this assay record as the result for N#C/C(=C\c1cc2ccc(N3CCC3)cc2oc1=O)C(=O)N(CC(=O)O)CC(=O)O ?
Key: false (0)

Exercise: What was the test verdict on COc1cc2c(cc1NC(=O)C(Cl)Cl)-c1ccc(NC(=O)C(Cl)Cl)cc1C2 ?
Key: false (0)

----------
test system: HL-60(TB) leukemia; assay: NCI tumour cell line growth inhibition, 48 h
Assignment: determine reported GI50 for the given compounds.

Exercise: Look up GI50: COc1ccc2nc3cc(Cl)ccc3c(N3CCN(c4ccnc(N5CCN(C)CC5)n4)CC3)c2c1
Key: 2.14 µM

Exercise: Could you share which GI50 value was measured for O=C(c1cc(Cc2n[nH]c(=O)c3ccccc23)ccc1F)N1CCN(C(=O)C2CC2)CC1 ?
Key: > 100 µM

Exercise: I am curious: what GI50 value has been reported for CC(C)N(Cc1ccc(F)cc1)c1ccc(CO)c(Cl)c1 ?
Key: 3.15 µM

Exercise: # query: GI50 of entry CC1CCC2C(CN(CC3=C(C(F)(F)F)OC4OC5(C)CCC6C(C)CCC3C46OO5)CC3=C(C(F)(F)F)OC4OC5(C)CCC6C(C)CCC3C46OO5)=C(C(F)(F)F)OC3OC4(C)CCC1C32OO4 (stereo not drawn)
Key: 3.12 µM

Exercise: Find the recorded GI50 belonging to COc1cc2c(cc1NC(=O)C(Cl)Cl)-c1ccc(NC(=O)C(Cl)Cl)cc1C2 and report it.
Key: 0.568 µM

Exercise: I have this compound here, C=CC[N+]1(CC)CCN=C1CCCCCCCCCCCCCCCCC (stereo not drawn) , and I need its recorded GI50.
Key: 0.562 µM

Exercise: What does the record list as GI50 for N#CC1C(N)=NNC12Nc1ccccc1S2 (stereo not drawn) ?
Key: 42.5 µM

Exercise: Any idea what GI50 was measured for O=C1/C(=C/c2ccccc2O)N=C(c2ccccc2)N1c1cc(C(F)(F)F)ccc1Cl ?
Key: > 100 µM

Exercise: GI50 lookup needed for O=C1c2ccccc2C(=O)c2c1cc1c(c2[N+](=O)[O-])OCO1 , thanks.
Key: 0.465 µM

Exercise: Look up GI50: COc1cc(/C=C/C(=O)O[C@H]2[C@H](O[C@@H]3O[C@@H](C)[C@H](O)[C@@H](O)[C@H]3O)[C@@H](O)[C@H](OCCc3ccc(O)c(O)c3)O[C@@H]2COC2OCC(O)(CO)C2O)ccc1O (stereo partly drawn)
Key: > 100 µM

Exercise: Which value of GI50 has been reported for C=CCN(CC=C)C(=O)[C@H](CC)[C@@H]1CC[C@@H](C)[C@@H]([C@H](C)[C@@H](O)[C@@H](C)C(=O)[C@H](CC)C2O[C@]3(C=C[C@@H](O)[C@]4(CC[C@@](C)([C@H]5CC[C@](O)(CC)[C@H](C)O5)O4)O3)[C@H](C)C[C@@H]2C)O1 (stereo partly drawn) in the records?
Key: 2.09 µM

Exercise: I have this compound here, S=C(NCc1ccc2c(c1)OCO2)N1CCN(c2ncnc3c2oc2ccccc23)CC1 , and I need its recorded GI50.
Key: 4.87 µM

Exercise: Quick one: GI50 for Cn1c(C(=O)c2cccc3ccccc23)nc2ccccc21 ?
Key: > 100 µM

Exercise: Query: GI50; subject: N#Cc1c(NC(=O)c2ccccc2F)sc2c1CCCC2
Key: > 25 µM

Exercise: Find the recorded GI50 belonging to O=C(O)CCCc1ccccc1 and report it.
Key: > 1000 µM

Exercise: Field request: GI50 | item: c1ccc(C2CCCCC2)c(OCCCCCN2CCNCC2)c1
Key: 1.72 µM

Exercise: Any idea what GI50 was measured for CC1CCN(CCOc2ccc(CNc3ccc4nc(CCC5CCCCC5)[nH]c4c3)cc2)CC1 ?
Key: 1.83 µM

Exercise: What value of GI50 has been recorded for this entry: Cc1ccc(-n2c(-c3cc4c([nH]c5ccccc54)c(-c4cccc(O)c4)n3)n[nH]c2=S)cc1
Key: 1.08 µM
